# TEST DESCRIPTION: forskolin-driven CRE-LacZ activity in PC12 – cell-based, CRE-LacZ reporter, forskolin-stimulated, primary screen (AID 1146);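 also: PC12 cells with 6xCRE LacZ reporter stimulated by forskolin 10 µM; beta-galactosidase reporter signal reflecting CREB driven transcription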
# RUN CONDITIONS: luminescence, 4.5 h, higher = more signal, called active from +8 up or from −8 down
MEASURED PARAMETER: z-score
Would you mind answering with just the numeric figure?

Entry under review: COC(=O)[C@@]1(Cc2ccc(F)cc2)[C@H]2c3cc(C(=O)N(C)C)n(CCc4ccc(OC)c(Br)c4)c3C[C@H]2CN1C(=O)c1ccccc1 . Reported z-score?
124

Fill in: z-score of CCCC#C[Si](O[C@H](CC)c1cn([C@H](C)c2ccccc2)nn1)(C(C)C)C(C)C is ___
-0.929

What does the record list as z-score for CN1C2C=C(CCCO)C(C3C(=O)N(C(N)=O)C(=O)C32)C1C1CC1 (configuration not stated) ?
0.373

Look up z-score: [N-]=[N+]=Nc1ccccc1C[C@@]1(C(=O)NCCN2CCOCC2)N=C(c2ccc(OCCCO)cc2)O[C@@H]1c1ccccc1N=[N+]=[N-]
-1.83

Item CC(C)(C)OC(=O)COc1cccc(C(=O)CCN2CCOCC2)c1 has what recorded z-score?
12.2

Given NC(=O)[C@H]1[C@@H]2C(=O)O[C@@H](c3ccccc3)[C@@H](c3ccccc3)N2[C@@H](c2ccc(OCCO)cc2)[C@]12C(=O)Nc1ccc(C#CCCO)cc12 , state its recorded z-score.
0.776

So what does the record say about z-score for CC[C@@H]1C=C(C(=O)O)[C@H](c2ccc(C#N)cc2)N1S(=O)(=O)c1ccc(C)cc1 ?
-0.397

Looking for the measured z-score of COC(=O)C1(CC(C)C)C=C2C(=C(c3ccccc3)C(=O)C2C)CN1 (configuration not stated) , can you help?
1.64

Any idea what its z-score is? The compound is CCCNC(=O)[C@@H]1c2ccccc2C(=O)N(Cc2ccc(OC(F)(F)F)cc2)[C@H]1c1ccc(CO)cc1
-0.283

Consider the compound O=C(Cc1ccccc1)[C@H]1C2C=CCCC(c3ccccc3)=C2CN1Cc1ccccc1 (some centres not stated) and give its measured z-score.
-0.0521

What value of z-score has been recorded for this entry: COc1cc2c(cc1O)C(c1cccs1)N(Cc1cc3c(cc1Br)OCO3)CC2 (configuration not stated)
0.726

Field request: z-score | item: CCN(CC)c1ccc(N2CC=CC34O[C@@H]5/C=C\CCCOC(=O)C5[C@H]3C(=O)N(C(C)CO)[C@@H]4C2=O)cc1 (some centres not stated)
-0.695
